# log p [c] per entry
protocol description: logP by HPLC on reversed-phase columns (EEC Directive 79/831 Annex V.A8)
Assay type: physicochemical
cond: pH 7.8
outcome measure: log p [c]

compound	assay result
Clc1cnc(Nc2cccc(C3SCCS3)c2)nc1NC1CC1 [Example 47]	3.68
COCC1COC(c2cccc(Nc3ncc(Cl)c(NC4CCC4)n3)c2)O1 (stereo not drawn) [Example 114]	3.42
C=CCOCC1COC(c2cccc(Nc3ncc(Cl)c(NC4CC4)n3)c2)O1 (stereo not drawn) [Example 34]	3.39
Clc1cnc(Nc2cccc(C3OCC4(CCC4)CO3)c2)nc1NC1CC1 [Example 103]	3.62
CCC1COC(c2cccc(Nc3ncc(Cl)c(NC4CCC4)n3)c2)O1 (stereo not drawn) [Example 90]	4.18
Clc1cnc(Nc2cccc(C3OCC4(CC4)CO3)c2)nc1NC1CC1 [Example 123]	3.32
COCC1COC(c2cccc(Nc3ncc(Cl)c(NC4CC4)n3)c2)O1 (stereo not drawn) [Example 28]	2.81
CCC1(c2cccc(Nc3ncc(Cl)c(NC4CC4)n3)c2)OCC(C)O1 (stereo not drawn) [Example 74]	4.1
CC1OC(c2cccc(Nc3ncc(Br)c(NC4CC4)n3)c2)OC1C (stereo not drawn) [Example 14]	3.5

* * *

protocol description: logP by HPLC on reversed-phase columns (EEC Directive 79/831 Annex V.A8)
Assay type: physicochemical
cond: pH 7.8
Procedure: The logP values were measured in accordance with EEC Directive 79/831 Annex V.A8 by HPLC (High Performance Liquid Chromatography) on reversed-phase columns (C 18) using the methods below: [a] The determination was carried out in the acidic range at pH 2.3 using the mobile phases 0.1% aqueous phosphoric acid and acetronitrile linear gradient from 10% acetonitrile to 95% acetronitrile. [b] […]
Using log p [c] as the sorting value, the categories are Low (below 3), Medium (3 to below 4), High (4 or more)

compound	assigned label
CC1(c2cccc(Nc3ncc(C(F)(F)F)c(NCC4CC4)n3)c2)OCCO1	Medium
CC1(C)COC(C)(c2cccc(Nc3ncc(Cl)c(NC4CC4)n3)c2)OC1	High
CC1COC(c2cccc(Nc3ncc(C(F)(F)F)c(NC4CC4)n3)c2)O1 (stereo not shown)	Medium
Fc1ccc(Nc2ncc(Cl)c(NC3CC3)n2)cc1C1OCCO1	Low
CCCCC1COC(c2cccc(Nc3ncc(Cl)c(NC4CC4)n3)c2)O1 (stereo not shown)	High
COCC1COC(c2cccc(Nc3ncc(C(F)(F)F)c(NC4CCC4)n3)c2)O1 (stereo not shown)	Medium
COCC1COC(c2cccc(Nc3ncc(Br)c(NC4CCC4)n3)c2)O1 (stereo not shown)	Medium
Clc1cnc(Nc2cccc(C3OCCCCO3)c2)nc1NC1CC1	Medium
Brc1cnc(Nc2ccc(C3OCCCO3)cc2)nc1NC1CCC1	Medium
Cc1cnc(Nc2cccc(C3OCCO3)c2)nc1NC1CC1	Low
Fc1cnc(Nc2cccc(C3OCCCO3)c2)nc1NC1CC1	Low
CC1COC(c2cccc(Nc3ncc(Br)c(NC4CCC4)n3)c2)O1 (stereo not shown)	Medium
CCC1COC(c2cccc(Nc3ncc(C(F)(F)F)c(NC4CCC4)n3)c2)O1 (stereo not shown)	High
Brc1cnc(Nc2cccc(C3OCCO3)c2)nc1NC1CCC1	Medium

* * *

protocol description: logP by HPLC on reversed-phase columns (EEC Directive 79/831 Annex V.A8)
Type: physicochemical
cond: pH 2.7
Attribute: log p [b]

compound	log p [b]
COCC1COC(c2cccc(Nc3ncc(Br)c(NC4CCC4)n3)c2)O1 (centres unmarked)	2.19
Clc1cnc(Nc2cccc(C3OC4COCC4O3)c2)nc1NC1CCC1 (centres unmarked)	1.77
Clc1cnc(Nc2cccc(C3OCCCCO3)c2)nc1NC1CC1	2.14
